Values from ChEMBL document CHEMBL4052653

# Test system: HCT-116
# test.method.notes: Growth inhibition of human HCT116 cells after 72 hrs by CellTiter-Glo luminescence assay
# Format: functional
# experimental.context: HCT-116, 72 h
observable: GI50 (nM)

| smiles.string | GI50 (nM) |
| --- | --- |
| OCc1noc(-c2ccc(N3CCC(c4ccc(C(F)(F)F)cc4)(C(F)(F)F)CC3)nn2)n1 | 1.3 |

a. OCc1nsc(-c2ccc(N3CCC(c4ccc(C(F)(F)F)cc4)(C(F)(F)F)CC3)nn2)n1
b. N#CC1(c2cccc(Cl)c2)CCN(c2ccc(-c3nc(CO)no3)nn2)CC1
c. N#CC1(c2ccc(C(F)(F)F)cc2)CCN(c2ccc(-c3nc(CO)no3)nn2)CC1
Input: Put these in order: smallest GI50 first, largest last. // rank by listing labels in the order requested
Output: a, c, b

* * *

# test.method.notes: Total clearance in mouse at 0.1 mg/kg, iv or 1 mg/kg, po administered as cassette dose
# Type: ADME, organism-based
# experimental.context: in vivo
observable: clearance (mL/min/kg)

| smiles.string | clearance / mL/min/kg |
| --- | --- |
| OCc1noc(-c2ccc(N3CCC(c4ccc(C(F)(F)F)cc4)(C(F)(F)F)CC3)nn2)n1 | 15.4 |

P. OCc1nnc(-c2ccc(N3CCC(c4ccc(C(F)(F)F)cc4)(C(F)(F)F)CC3)nn2)o1
Q. OCc1nsc(-c2ccc(N3CCC(c4ccc(C(F)(F)F)cc4)(C(F)(F)F)CC3)nn2)n1
R. OCc1nnc(-c2ccc(N3CCC(c4ccc(C(F)(F)F)cc4)(C(F)(F)F)CC3)nn2)s1
Input: Put these in order: smallest clearance first, largest last. // rank by listing labels in the order requested
Output: P, Q, R

* * *

# test.method.notes: Fraction unbound in mouse plasma
# Format: ADME, cell-free
observable: fraction unbound

| smiles.string | fraction unbound |
| --- | --- |
| OCc1noc(-c2ccc(N3CCC(c4ccc(C(F)(F)F)cc4)(C(F)(F)F)CC3)nn2)n1 | 0.05 |
| OCc1nsc(-c2ccc(N3CCC(c4ccc(C(F)(F)F)cc4)(C(F)(F)F)CC3)nn2)n1 | 0.01 |

I. OCc1nnc(-c2ccc(N3CCC(c4ccc(C(F)(F)F)cc4)(C(F)(F)F)CC3)nn2)o1
II. OCc1nnc(-c2ccc(N3CCC(c4ccc(C(F)(F)F)cc4)(C(F)(F)F)CC3)nn2)s1
Input: I'd appreciate it if you could identify which of I and II has the greater fraction unbound. To answer, give the label that identifies your chosen option.
Output: I
(I: 0.07, II: 0.03)

* * *

# Test system: HCT-116
# test.method.notes: Growth inhibition of human HCT116 cells after 72 hrs by CellTiter-Glo luminescence assay
# Format: functional
# experimental.context: HCT-116, 72 h
observable: GI50 (µM)

| smiles.string | GI50, µM |
| --- | --- |
| N#CC1(c2ccc([N+](=O)[O-])cc2)CCN(c2ccc(-c3nc(CO)no3)nn2)CC1 | 0.17 |
| CC(C)(C)c1ccc(C2(C#N)CCN(c3ccc(-c4nc(CO)no4)nn3)CC2)cc1 | 0.037 |
| N#CC1(c2ccccc2Cl)CCN(c2ccc(-c3nc(CO)no3)nn2)CC1 | 0.24 |
| N#CC1(c2ccc(OC(F)(F)F)cc2)CCN(c2ccc(-c3nc(CO)no3)nn2)CC1 | 0.032 |
| N#CC1(c2ccc(S(F)(F)(F)(F)F)cc2)CCN(c2ccc(-c3nc(CO)no3)nn2)CC1 | 0.0084 |

A. NC1(c2ccccc2)CCN(c2ccc(-c3nc(CO)no3)nn2)CC1
B. OCc1nnc(-c2ccc(N3CCC(c4ccc(C(F)(F)F)cc4)(C(F)(F)F)CC3)nn2)o1
Input: # min-compare on GI50 between A and B To answer, give the label that identifies your chosen option.
Output: B
(B: 0.0027 µM, A: 0.53 µM)

* * *

# tested.system: UniProt O00767
# Sequence (O00767 whole entry): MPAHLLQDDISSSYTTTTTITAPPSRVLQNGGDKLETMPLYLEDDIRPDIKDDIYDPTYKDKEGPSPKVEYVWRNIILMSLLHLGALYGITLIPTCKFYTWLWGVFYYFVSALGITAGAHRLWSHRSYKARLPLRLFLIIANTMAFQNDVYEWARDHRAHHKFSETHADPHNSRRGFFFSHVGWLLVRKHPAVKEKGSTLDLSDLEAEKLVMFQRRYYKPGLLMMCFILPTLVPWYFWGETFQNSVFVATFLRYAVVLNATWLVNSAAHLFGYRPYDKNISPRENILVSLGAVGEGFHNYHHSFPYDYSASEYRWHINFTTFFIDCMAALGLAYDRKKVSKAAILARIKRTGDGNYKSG
# test.method.notes: Displacement of (5-(6-(10H-spiro(1-benzofuran-3,30-pyrrolidin)-10-yl)pyridazin-3-yl)-1,2,4-oxadiazol-3-yl)[3H2]methanol from SCD1 in human liver microsomes after 120 mins TopCount liquid scintillation counting method
pIC50: −log10 of the molar value.
observable: pIC50

| smiles.string | observable | reported |
| --- | --- | --- |
| N#CC1(c2ccc([N+](=O)[O-])cc2)CCN(c2ccc(-c3nc(CO)no3)nn2)CC1 | pIC50 | 7.00 |
| N#CC1(c2ccccc2Cl)CCN(c2ccc(-c3nc(CO)no3)nn2)CC1 | pIC50 | 7.10 |
| OCc1noc(-c2ccc(N3CCC(O)(c4ccccc4)CC3)nn2)n1 | pIC50 | 6.89 |
| COC1(c2ccccc2)CCN(c2ccc(-c3nc(CO)no3)nn2)CC1 | pIC50 | 6.96 |
